Origin of measurements: ChEMBL document CHEMBL1149870

Attribute: MIC
Tested on: Bacillus subtilis
assay comment: Antibacterial activity against Bacillus subtilis by Muller Hilton broth method
Type: functional
readout type: MIC

| molecule | assay value |
| --- | --- |
| COc1cc(CCCOCCCBr)cc2cc(-c3ccc4c(c3)OCO4)oc12 | 256 µg/mL |
| COc1cc(CCC=O)cc2cc(-c3ccc4c(c3)OCO4)oc12 | 256 µg/mL |
| COc1cc(CCCO)cc2c([N+](=O)[O-])c(-c3ccc4c(c3)OCO4)oc12 | 800 µg/mL |
| COc1cc(CCCBr)cc2cc(-c3ccc4c(c3)OCO4)oc12 | 400 µg/mL |
| COc1cc(CCCCl)cc2cc(-c3ccc4c(c3)OCO4)oc12 | 128 µg/mL |
| COc1c(Br)c(CCCO)cc2cc(-c3ccc4c(c3)OCO4)oc12 | 800 µg/mL |
| COc1cc(CCCOC=O)cc2cc(-c3ccc4c(c3)OCO4)oc12 | 400 µg/mL |
| COc1cc(CCCC#N)cc2cc(-c3ccc4c(c3)OCO4)oc12 | 800 µg/mL |
| COc1cc(CCCI)cc2cc(-c3ccc4c(c3)OCO4)oc12 | 800 µg/mL |
| COc1cc(CCCO)cc2cc(-c3ccc4c(c3)OCO4)oc12 [EGONOL] | 800 µg/mL |
| COc1cc(CCCOC(=O)c2ccccc2)cc2cc(-c3ccc4c(c3)OCO4)oc12 | 800 µg/mL |
